test: Half life in 0.05 M phosphate buffer of pH 7.3 at 25 degC by spectrophotometric analysis; format: physicochemical
Parameter: half-life. Scope: all listed entries.

- CHEMICAL STRUCTURE: "Cc1cccc(C(=O)n2cc(C#N)c3cccnc32)c1"
  half-life (h): 1.9
- CHEMICAL STRUCTURE: "Cc1cccc(C(=O)n2cc(-c3nc(C)no3)c3cccnc32)c1"
  half-life (h): 2.4
- CHEMICAL STRUCTURE: "Cc1ccc(C(=O)n2cc(C#N)c3cccnc32)cc1"
  half-life (h): 2.6
- CHEMICAL STRUCTURE: "N#Cc1cn(C(=O)C2CC2)c2ncccc12"
  half-life (h): 6.8

---

Target: Neutrophil elastase (Homo sapiens)
Sequence (whole entry): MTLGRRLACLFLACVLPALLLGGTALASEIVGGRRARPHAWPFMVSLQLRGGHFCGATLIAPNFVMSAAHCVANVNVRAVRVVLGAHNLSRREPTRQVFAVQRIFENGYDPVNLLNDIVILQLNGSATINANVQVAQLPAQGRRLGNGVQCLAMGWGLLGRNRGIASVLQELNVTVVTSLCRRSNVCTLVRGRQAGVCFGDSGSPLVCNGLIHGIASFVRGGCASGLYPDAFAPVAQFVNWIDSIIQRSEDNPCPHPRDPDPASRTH
Experiment: Inhibition of human neutrophil elastase at 50 uM using N-methylsuccinyl-Ala-Ala-Pro-Val-7-amino-4-methylcoumarin as substrate measured every 30 secs for 10 mins by fluorescence assay
Calls of active or inactive are those of the source. The calls are words filed in the database; no cut-off is given here.

- CHEMICAL STRUCTURE: "Cn1cc(C(=O)Nc2ccccc2)c2cccnc21"
  inhibition: "inactive"
- CHEMICAL STRUCTURE: "Cc1cccc(C(=O)n2ccc3cccnc32)c1"
  inhibition: "inactive"
- CHEMICAL STRUCTURE: "N#Cc1cn(CC(=O)Nc2ccccc2)c2ncccc12"
  inhibition: "inactive"
- CHEMICAL STRUCTURE: "CCOC(=O)c1cn(CC(=O)Nc2ccccc2)c2ncccc12"
  inhibition: "inactive"
- CHEMICAL STRUCTURE: "Cc1cccc(C(=O)n2cc(-c3ccsc3)c3cccnc32)c1"
  inhibition: "inactive"

Data provenance: ChEMBL document CHEMBL4261628
